target under test: T1, human GPC3 on CHO-K1-human GPC3 cells (clone CHOK1-hGPC3.2B5) (human, UniProt P51654 25-554)
T1 construct: whole, on cells; Stably transfected CHO-K1 clone 2B5
protocol description: FACS on CHOK1-hGPC3.2B5 cells;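 note: flow cytometry binding of chimeric antibodies to the cells, read out as mean fluorescence intensity, with the half-maximal concentration derived by curve fitting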
assay readout: EC50 (nM)
# output: bare number, implied unit nM

F1.62.9 human-murine chimeric antibody (antibody, human IgG1, kappa, V domains shown) VH: QVQLQQSDAELVKPGASVKISCKVSGYIFTDHTIHWMKQRPEQGLEWIGYIYPRDGSIKYNENFKGKATLTADKSSSATYMQLNSLTSEDSAVYFCARPIYYDYAYYFDYWGQGTTLTVSS VL: DVVMTQSPLSLPVSLGDQASISCRSRQSLVHSNGNTYLHWYLQKPGQSPKVLIYKVSNRFSGVPDRFSGSGSGTDFTLKISRVEAEDLGVYFCSQSTHVPYTFGGGTKLEIKR	3.49

Kindly review the next binder as well.
EC50 reported for this binder F1.115.8 human-murine chimeric antibody (antibody, human IgG1, kappa, V domains shown) VH: EVQLQQSGPELVKPGASVKMSCKASGYTFTEYYMHWVKQSHGKSLEWIGYIYPNNGGNGYNQKFKGKATLTVDKSSSTAYMGLRSLTSEDSAVYYCVRGYYSNWYFDVWGTGTTVTVSS VL: DVLMTQTPLSLPVSLGDQASISCRSSQSIVHSNGKTYLEWYLQKPGQSPKLLIYKVSNRFSGVPDRFSGSGSGTDFTLKISRVEAEDLGVYYCFQGSHVPFTFGSGTKLEIKR : 0.33
